Target: T1, exemplary TAT frataxin fusion molecule (HIV-1, UniProt Q16595 1-210)
T1 construct: in the bridging assays biotinylated and sulfotagged forms were used; also called TAT-FXN fusion molecule; TAT FXN fusion molecule
T1 sequence: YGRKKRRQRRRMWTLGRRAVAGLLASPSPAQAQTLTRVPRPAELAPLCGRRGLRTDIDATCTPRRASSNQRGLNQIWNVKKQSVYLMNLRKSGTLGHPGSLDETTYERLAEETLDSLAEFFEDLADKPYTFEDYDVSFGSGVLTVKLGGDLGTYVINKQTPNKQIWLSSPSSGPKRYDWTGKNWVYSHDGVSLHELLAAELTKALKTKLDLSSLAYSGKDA
Assay: PK sandwich ELISA in human plasma, antibody as capture, HRP anti-frataxin mAb detection
Reported S/N at plasma conc. 0.400 ng/mL by item:
READOUT_NAME: S/N at plasma conc. 0.400 ng/mL

BINDER: antibody 12-3 (antibody, V domains shown, Rabbit monoclonal) VH: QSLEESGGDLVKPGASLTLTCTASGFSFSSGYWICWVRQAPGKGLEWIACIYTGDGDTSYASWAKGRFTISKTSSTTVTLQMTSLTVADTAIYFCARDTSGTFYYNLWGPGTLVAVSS VL: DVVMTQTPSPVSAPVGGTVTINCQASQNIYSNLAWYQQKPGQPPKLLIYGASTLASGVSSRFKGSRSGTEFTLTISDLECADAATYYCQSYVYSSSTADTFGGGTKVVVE
RECORDED_MEASUREMENT: 1.6
--
BINDER: antibody 12-8 (antibody, V domains shown, Rabbit monoclonal) VH: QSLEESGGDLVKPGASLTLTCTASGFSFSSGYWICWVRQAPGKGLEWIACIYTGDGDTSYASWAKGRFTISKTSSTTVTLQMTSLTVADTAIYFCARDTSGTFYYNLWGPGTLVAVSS VL: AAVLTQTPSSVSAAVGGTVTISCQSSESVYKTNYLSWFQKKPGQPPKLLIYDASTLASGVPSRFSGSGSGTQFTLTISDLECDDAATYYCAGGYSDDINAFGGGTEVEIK
RECORDED_MEASUREMENT: 1.5
--
BINDER: antibody 10-12 (antibody, V domains shown, Rabbit monoclonal) VH: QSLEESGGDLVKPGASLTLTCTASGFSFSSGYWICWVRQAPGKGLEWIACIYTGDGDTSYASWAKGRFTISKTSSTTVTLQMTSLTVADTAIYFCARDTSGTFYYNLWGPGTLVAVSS VL: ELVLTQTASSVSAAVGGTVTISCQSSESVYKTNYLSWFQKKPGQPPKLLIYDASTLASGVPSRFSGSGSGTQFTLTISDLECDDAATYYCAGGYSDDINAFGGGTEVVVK
RECORDED_MEASUREMENT: 1.6
